These measurements were taken from patent US20260166162A1.

// reported Sterilization rate (%) for each item listed
System: HIV pseudovirus; further: test concentration or dose not given here
Format: cell-based, HIV pseudovirus HIV18A-41

molecule | Sterilization rate (%)
CCCCCCCCN(C)C[C@H](O)[C@@H](O)[C@H](O)[C@H](O)CO [N-octyl-N-methylglucamine] | 99%
CCC=CCC=CCC=CCC=CCC=CCC=CCCC(=O)OCC(N)C(=O)O (centres unmarked) | 99%
CCCCCCCC(=O)OC(C)C(N)C(=O)O (centres unmarked) | 99%
CCCCCCCC(=O)OCC(N)C(=O)O (centres unmarked) | 99%
CCC=CCC=CCC=CCC=CCC=CCC=CCCC(=O)OC(C)C(N)C(=O)O (centres unmarked) | 99%
CCC=CCC=CCC=CCC=CCC=CCC=CCCC(=O)NCCCCC(N)C(=O)O (centres unmarked) | 99%
CCCCCCCCCN(C)C[C@H](O)[C@@H](O)[C@H](O)[C@H](O)CO [N-nonyl-N-methylglucamine] | 99%
CCCCCCCC/C=C\CCCCCCCC(=O)OC(C)C(N)C(=O)O (centres unmarked) | 99%
